Every entry's value here was drawn from ChEMBL document CHEMBL2218924.

Provide the reported residual activity of each item.
# ASSAY TARGET: Protein kinase C iota type (Homo sapiens) (UniProt P41743)
# Sequence (whole entry): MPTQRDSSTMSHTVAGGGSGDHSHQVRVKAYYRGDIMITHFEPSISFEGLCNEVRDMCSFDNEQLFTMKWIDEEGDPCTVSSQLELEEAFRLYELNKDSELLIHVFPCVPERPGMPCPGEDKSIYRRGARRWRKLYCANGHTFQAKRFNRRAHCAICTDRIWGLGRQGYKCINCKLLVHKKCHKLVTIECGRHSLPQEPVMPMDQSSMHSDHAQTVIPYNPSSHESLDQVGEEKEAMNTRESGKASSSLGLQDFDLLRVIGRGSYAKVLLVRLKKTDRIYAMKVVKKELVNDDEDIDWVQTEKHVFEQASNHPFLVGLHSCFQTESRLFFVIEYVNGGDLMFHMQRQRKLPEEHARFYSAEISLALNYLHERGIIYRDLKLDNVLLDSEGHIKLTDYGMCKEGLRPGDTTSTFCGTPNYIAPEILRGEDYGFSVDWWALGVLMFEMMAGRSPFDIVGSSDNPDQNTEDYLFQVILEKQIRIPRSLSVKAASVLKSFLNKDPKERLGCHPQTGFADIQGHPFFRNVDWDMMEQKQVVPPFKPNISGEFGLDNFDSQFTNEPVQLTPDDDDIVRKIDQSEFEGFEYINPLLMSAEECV
# TEST SETTINGS: at 1 µM
Respond with the bare value in %.

## Input GET /values?readout=residual activity&item= Nc1ccc2ncnc(NCCc3ccc(Oc4ccccc4)cc3)c2c1
## Output 113

## Input Try this compound too: COc1ccc(CNc2nc(N(CCO)CCO)nc3c2ncn3C(C)C)cc1
## Output 112

## Input Now the compound Nc1n[nH]c2nnc(-c3c(-c4ccccc4)nn4ccccc34)cc12
## Output 115

## Input Let us now turn to NC(=O)c1ccc2[nH]c(-c3ccc(Oc4ccc(Cl)cc4)cc3)nc2c1
## Output 107

## Input Try Cc1nc2cc3nc(-c4cccs4)cnc3cc2n1C next.
## Output 97

## Input Now give it for O=C1NC(=O)/C(=C\c2ccc3nccnc3c2)S1 too.
## Output 89

## Input Moving on to CCN(CC)C(=O)c1ccc(Nc2nc(OCC3CCCCC3)c3nc[nH]c3n2)cc1
## Output 99

## Input How about CC(C)n1cnc2c(NCc3ccccc3)nc(NCCCO)nc21 ?
## Output 109

## Input Follow-up entry: CC#CC(=O)Nc1cc2c(Nc3ccc(F)c(Cl)c3)ncnc2cn1
## Output 87

## Input Try O=C(O)c1ccc2c3c1cccc3c(=O)n1c3ccccc3nc21 next.
## Output 105

## Input Cool, now CC(=O)c1ccc(N2CCOCC2)cc1O
## Output 84

## Input Same lookup for Cn1cnc2cc3c(Nc4cccc(Br)c4)ncnc3cc21 , please.
## Output 103

## Input Lookup O=c1cc(-c2cccc3c2Sc2ccccc2S3)oc(N2CCOCC2)c1
## Output 117

## Input Same for COc1ccc(C(=O)Nc2sc3c(c2C(N)=O)CCCC3)cc1OC
## Output 89

## Input Please do the same for COc1cc2ncnc(Nc3ccc(O)c(Br)c3)c2cc1OC as well.
## Output 88

## Input Here is the next compound: COc1cc2ncnc(Nc3ccc(NC(=O)c4ccccc4)cc3)c2cc1OC
## Output 101

## Input Entry CO[C@@H]1[C@H](N(C)C(=O)c2ccccc2)C[C@H]2O[C@]1(C)n1c3ccccc3c3c4c(c5c6ccccc6n2c5c31)C(=O)NC4 please
## Output 79

## Input Let us now turn to Cc1nc(-c2ccccc2)c(-c2ccncc2)o1
## Output 108
